system: Ri-1 cells; test: BTK (wt) cell proliferation, Ri-1 (CellTiter-Glo, 72 h); assay type: cell-based; settings: Ri-1, 72 h, Ri-1 cells, 72 h, CellTiter-Glo; read-out: BTK WT Ri-1 GI50;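 note: viable cells quantified as cellular ATP luminescence, proliferation normalized to a time-zero plate and the DMSO control, compounds tested across a dilution series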
Structures can show the parent of a compound that is named as a salt.
Note to self: GI50 under 80 nM means criterion met, ties and anything higher get criterion not met.

{"columns": ["Molecule", "Label class"],
 "data": [
  ["C=CC(=O)Nc1cc(Nc2ncnc(Nc3ccc(C(F)(F)F)cc3C(C)(C)O)n2)c(OC)cc1N(C)CCN(C)C", "criterion not met"],
  ["C=CC(=O)Nc1cc(Nc2ncnc(Nc3cc(Cl)c(F)cc3C(C)(C)O)n2)c(OC)cc1N(C)CCN1CCCC1", "criterion met"],
  ["C=CC(=O)Nc1cc(Nc2ncnc(Nc3cc(F)c(F)cc3C(C)(O)CC)n2)c(OC)cc1N(C)CCN(C)C (centres unmarked)", "criterion not met"],
  ["C=CC(=O)Nc1cc(Nc2ncnc(Nc3cc(Cl)c(F)cc3C(C)(C)O)n2)c(OC)cc1N(C)C[C@H]1CCCN1C", "criterion met"],
  ["C=CC(=O)Nc1cc(Nc2ncnc(Nc3cc(Cl)c(F)cc3C(C)(O)CC)n2)c(OC)cc1N(C)CCN(C)C (centres unmarked)", "criterion met"]
]}

## Task Determine if `C=CC(=O)Nc1cc(Nc2ncnc(Nc3cc(F)c(F)cc3C(C)(C)O)n2)c(OC)cc1N1CCC[C@@H]1CN(C)C` shows GI50 strictly lower than 80 nM.
## Result criterion met

## Task // next record `C=CC(=O)Nc1cc(Nc2nccc(Nc3cc(Cl)c(Cl)cc3C(C)(C)O)n2)c(OC)cc1N1CC[C@@H](N(C)C)C1`
## Result criterion met

## Task Also C=CC(=O)Nc1cc(Nc2nccc(Nc3cc(Cl)c(F)cc3C(C)(C)O)n2)c(OC)cc1N1C[C@H]2CN(C)[C@H]2C1 [Compound 89, formic acid salt] , if possible.
## Result criterion met
